# TESTED SYSTEM: Phosphoglycerate kinase, glycosomal (Trypanosoma brucei brucei)
# EXPERIMENT: qHTS Assay to Find Inhibitors of Phosphoglycerate Kinase; note: nearly all actives have a fitted effect of over 60% in size
# MEASUREMENT PARAMETERS: PGK/GAPDH coupled, Kinase-Glo luminescence, 60 min; series mostly up to 57.5 µM
In all, about 380,000 compounds went through this assay and about 170 (0.045%) were called active. The sample holds actives, similar compounds and a random draw of the others, so the mix is not that of the screen.
OBSERVABLE: outcome

Before answering, review these 4 worked examples.
COc1ccc(Cn2c(=O)c3oc4ccccc4c3n(CC(=O)Nc3ccc(F)cc3F)c2=O)cc1    inactive
CCOc1ccccc1NC(=O)c1ccc2c(c1)CCN2S(=O)(=O)c1ccc(C)cc1    inactive
Cc1cc(C)cc(NC(=O)CSc2oc(-c3ccccc3)nc2S(=O)(=O)c2ccc(Cl)cc2)c1    inactive
NC(=O)[C@H]1CC2(CC(c3cccc(NC(=O)[C@H]4CCC(=O)N4)c3)=NO2)CN1C(=O)c1ccccc1C(=O)c1ccccc1 (some centres undefined)    inactive

Per the reported Phosphoglycerate kinase, glycosomal (Trypanosoma brucei brucei) data, CCCC(=O)Nc1cc(C(=O)NCc2ccc(OC)cc2)ccc1S(=O)(=O)c1ccc(Cl)cc1 has outcome of inactive

Per the reported Phosphoglycerate kinase, glycosomal (Trypanosoma brucei brucei) data, O=C(/C=C/c1cn(CC(O)CN2CCc3ccccc32)c2ccccc12)c1ccc(Br)cc1 (centres undefined) has outcome of inactive

Per the reported Phosphoglycerate kinase, glycosomal (Trypanosoma brucei brucei) data, C/C=C(\C)C(=O)N1CC2(CC(c3cccc(NC(=O)CCCCC)c3)=NO2)C[C@@H]1C(N)=O (some centres undefined) has outcome of inactive

Per the reported Phosphoglycerate kinase, glycosomal (Trypanosoma brucei brucei) data, Oc1ccccc1-c1nc2ccc(Cl)cn2c1Nc1ccc2c(c1)OCCO2 has outcome of inactive

Per the reported Phosphoglycerate kinase, glycosomal (Trypanosoma brucei brucei) data, Cc1ccc(-n2ncc3c(NCCCn4ccnc4)ncnc32)cc1Cl has outcome of inactive

Reference source: PubChem BioAssay AID602233
